Below are Ki values for Nischarin (Rattus norvegicus) collected from several publications.
Measurement kind: Ki (nM)

| Compound | Target | Measurement kind | Value measured |
| --- | --- | --- | --- |
| CC(Cc1ccccc1-c1ccsc1)C1=NCCN1 (stereo not drawn) | Nischarin (Rattus norvegicus) | Ki | 63.1 |
| c1ccc(-c2ccccc2CCC2=NCCN2)cc1 | Nischarin (Rattus norvegicus) | Ki | 6340 |
| Br.c1ccc(COc2cccc3ccn(CC4=NCCN4)c23)cc1 | Nischarin (Rattus norvegicus) | Ki | 36300 |
| CC(Cc1ccccc1Cl)C1=NCCN1 (stereo not drawn) | Nischarin (Rattus norvegicus) | Ki | 195 |
| Cc1ccccc1CC(C)C1=NCCN1 (stereo not drawn) | Nischarin (Rattus norvegicus) | Ki | 23.4 |

A: C[C@H](Cc1ccccc1-c1ccccc1)C1=NCCN1
B: Cc1ccccc1C[C@@H](C)C1=NCCN1
INPUT: // compare measured Ki between A and B ; output the lower one Please reply using the label of the selected record.
OUTPUT: B
(B: 1050 nM, A: 2240 nM)
